# experimentalTarget: human plasma protein factor Xa (Homo sapiens, UniProt P00742)
# Construct: measure proteolytic activity of the enzyme (factor Xa)
# Sequence (P00742 235-488 limits assumed): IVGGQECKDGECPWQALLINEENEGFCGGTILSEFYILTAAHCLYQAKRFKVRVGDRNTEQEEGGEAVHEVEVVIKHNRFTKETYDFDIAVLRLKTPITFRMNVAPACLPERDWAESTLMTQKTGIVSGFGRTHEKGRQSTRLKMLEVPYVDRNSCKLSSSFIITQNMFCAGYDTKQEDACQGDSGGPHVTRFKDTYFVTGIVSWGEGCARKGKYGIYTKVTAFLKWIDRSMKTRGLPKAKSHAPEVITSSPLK
# Sequence (P00742 41-179 partner limits assumed): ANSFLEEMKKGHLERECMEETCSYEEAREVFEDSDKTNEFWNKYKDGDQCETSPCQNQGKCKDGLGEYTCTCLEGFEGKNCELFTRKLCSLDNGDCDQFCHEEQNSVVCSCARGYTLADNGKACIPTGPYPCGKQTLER
# methodDescription: Factor Xa IC50 determination: cleavage of paranitroanilide substrate S-2765 in 96-well plates
# conditionDetails: fXa 1 nM, S-2765 100 μM, Tris buffered saline pH 7.4, room temperature
pIC50: −log10 of the molar value.
assayMetric: pIC50

compound: CCOC(=O)C1CCN(C(=N)c2ccc(-c3cc(CNC(=O)c4ccc(Cl)s4)on3)cc2)CC1 [Example 25]
observed: ≥ 7.00
//
compound: CN1CCN=C1c1ccc(-c2cc(CNC(=O)c3ccc(Cl)s3)on2)c(N2CCOCC2)c1 [Example 99]
observed: ≥ 7.00
//
compound: CNC(=N)c1ccc(-c2cc(CNC(=O)c3ccc(Cl)s3)on2)cc1 [Example 34]
observed: ≤ 6.30
//
compound: CCOc1cc(C2=NCCN2C)ccc1C1=NOC(CNC(=O)c2ccc(Cl)s2)C1 (stereo not drawn) [Example 107]
observed: ≥ 7.00
//
compound: CN(C)c1cc(C(=N)N2CCCCC2)ccc1C1=NOC(CNC(=O)c2ccc(Cl)s2)C1 (stereo not drawn) [Example 77]
observed: ≥ 7.00

Give measured pIC50 for every item shown.
1. CCOc1cc(C(=N)N(C)C)ccc1-c1cc(CNC(=O)c2ccc(Cl)s2)on1 [Example 122]
2. CN(C)CCN(C)C(=N)c1ccc(C2=NOC(C)(CNC(=O)c3ccc(Cl)s3)C2)cc1 (stereo not drawn) [Example 65]
3. CCN(C)C(=N)c1ccc(C2=NOC(CNC(=O)c3ccc(Cl)s3)C2)cc1 (stereo not drawn) [Example 18]
4. O=Cc1ccccc1-c1ccc(-c2cc(CNC(=O)c3ccc(Cl)s3)on2)cc1 [Example 208]
5. O=C(NCc1cc(-c2ccc(Cl)cc2)no1)c1ccc(Cl)s1 [Example 155]
6. O=C(NCC1CC(c2ccc(Nc3ccnc4c(C(F)(F)F)cccc34)cc2)=NO1)c1ccc(Cl)s1 (stereo not drawn) [Example 393]
7. CCOc1cc(C(=N)N2CCCC2)ccc1-c1cc(CNC(=O)c2ccc(Cl)s2)on1 [Example 124]
8. CN(Cc1ccco1)C(=N)c1ccc(C2=NOC(CNC(=O)c3ccc(Cl)s3)C2)cc1 (stereo not drawn) [Example 15]

Response:
1. ≥ 7.00
2. ≥ 7.00
3. ≥ 7.00
4. ≥ 7.00
5. ≤ 6.30
6. ≤ 6.30
7. ≥ 7.00
8. 6.30 to 7.00

I need pIC50 for every entry listed below, if you could help.
1. CC(C)Oc1cc(C2=NCCN2C)ccc1C1=NOC(CNC(=O)c2ccc(Cl)s2)C1 (stereo not drawn) [Example 110]
2. O=C(NCc1cn(-c2ccc(-n3ccccc3=O)nc2)nn1)c1ccc(Cl)s1 [Example 389]
3. CN1CCN=C1c1ccc(C2=NOC(CNC(=O)c3ccc(Cl)s3)C2)c(OC2CCCCC2)c1 (stereo not drawn) [Example 116]
4. N=C(c1ccc(-c2csc(CNC(=O)c3ccc(Cl)s3)n2)cc1)N1CCCCC1 [Example 363]
5. COCCN(C)c1cc(C2=NCCN2C)ccc1C1=NOC(CNC(=O)c2ccc(Cl)s2)C1 (stereo not drawn) [Example 87]
6. COc1ccc(-c2ccc(C3=NOC(CNC(=O)c4ccc(Cl)s4)C3)cc2)c(CO)c1 (stereo not drawn) [Example 207]
7. CN(C)CCN(C)c1ccc(C2=NOC(CNC(=O)c3ccc(Cl)s3)C2)cc1 (stereo not drawn) [Example 238]
8. Cc1ccc(=O)n(-c2ccc(C3=NOC(CNC(=O)c4ccc(Cl)s4)C3)cc2)c1 (stereo not drawn) [Example 285]

Response:
1: ≥ 7.00; 2: ≥ 7.00; 3: ≥ 7.00; 4: ≤ 6.30; 5: 6.30 to 7.00; 6: ≤ 6.30; 7: 6.30 to 7.00; 8: ≥ 7.00

Working through the 2 compounds below one at a time, give pIC50 for each.
1. CC1(CNC(=O)c2ccc(Cl)s2)CC(c2ccc(Cl)cc2)=NO1 (stereo not drawn) [Example 154]
2. O=C(NCc1cc(-c2ccc(-c3cccnc3)cc2)no1)c1ccc(Cl)s1 [Example 192]

Response:
1. ≤ 6.30
2. ≤ 6.30

Would you mind listing pIC50 for each of the following compounds?
1. CN(C)CCN(C)C(=N)c1ccc(C2=NOC(CNC(=O)c3ccc(Cl)s3)C2)cc1 (stereo not drawn) [Example 16]
2. O=C(NCC1CC(c2ccc(-c3ccncc3)cc2)=NO1)c1ccc(Cl)s1 (stereo not drawn) [Example 191]
3. O=C(NCc1cc(-c2cccc(-c3ccccc3CN3CCCC3)c2)no1)c1ccc(Cl)s1 [Example 269]
4. N=C(c1ccc(-c2cc(CNC(=O)c3ccc(Cl)s3)on2)cc1)N1CCCC1 [Example 23]
5. N=C(c1ccc(-c2noc(CNC(=O)c3ccc(Cl)s3)n2)cc1)N1CCCC1 [Example 336]
6. COc1ccc(=O)n(-c2ccc(C3=NOC(CNC(=O)c4ccc(Cl)s4)C3)cc2)c1 (stereo not drawn) [Example 286]
7. COCCN(C)c1cc(C(=N)N2CCCCC2)ccc1C1=NOC(CNC(=O)c2ccc(Cl)s2)C1 (stereo not drawn) [Example 89]

Response:
1: ≥ 7.00; 2: ≤ 6.30; 3: ≥ 7.00; 4: ≥ 7.00; 5: ≥ 7.00; 6: ≥ 7.00; 7: 6.30 to 7.00

Go through the list and state pIC50 for each entry.
1. CC1(CNC(=O)c2ccc(Cl)s2)CC(c2ccc(C(=N)N3CCCC3)cc2)=NO1 (stereo not drawn) [Example 59]
2. COCCN(C)c1cc(C(=N)N(C)C)ccc1C1=NOC(CNC(=O)c2ccc(Cl)s2)C1 (stereo not drawn) [Example 86]
3. N=C(c1ccc(-c2nc(CNC(=O)c3ccc(Cl)s3)cs2)cc1)N1CCCC1 [Example 352]

Response:
1. ≥ 7.00
2. ≥ 7.00
3. ≥ 7.00

The measured values listed here are drawn from patent US8377974B2.
